target: DNA-PK phosphorylation at serine 2056 (Homo sapiens (Human), UniProt P78527); assay: DNA-PK phosphorylation at serine 2056 (cellular), bleomycin-treated HCT116 cells, ELISA; type: cell-based; conditions: cellular; HCT116 cells, 10 μM bleomycin, six hours; read-out: IC50 pDNA-PK
property: IC50

# compound, measured value
measured = [
    ("OC(c1cc(-c2ncnc3cc(N4CCOCC4)ccc23)c(F)cc1F)c1ncnc2sccc12 (stereo not drawn)", "< 0.5 µM"),
    ("N#CCCOc1ccc(C(O)c2cc(-c3ncnc4cc(N5CCOCC5)ccc34)c(F)cc2Cl)nn1 (stereo not drawn)", "0.5 to 5 µM"),
]

Now turn to the next compound.
Please report IC50 for the following compound: O=C(O)c1ccc(C(O)c2cc(-c3ncnc4cc(N5CCOCC5)ccc34)c(F)cc2Cl)nn1 (stereo not drawn)
10 to 30 µM

---

biological target: DNA-PK phosphorylation at serine 2056 (Homo sapiens (Human), UniProt P78527); test: DNA-PK phosphorylation at serine 2056 (cellular), bleomycin-treated HCT116 cells, ELISA; format: cell-based; conditions: cellular DNA-PK phosphorylation at serine 2056, HCT116; read-out: IC50 pDNA-PK
Reported IC50 values for a set of molecules

Worked set:
# molecule, property, measured value
measured = [
    ("CCOc1cccnc1C(O)c1ccc(F)c(-c2ncnc3cc(N4CCOCC4)ccc23)c1 (stereo not drawn)", "IC50", "< 0.5 µM"),
    ("OC(c1cc(-c2ncnc3cc(N4CCOCC4)ccc23)c(F)cc1F)c1ncnc2ccoc12 (stereo not drawn) [Example 446]", "IC50", "0.5 to 5 µM"),
]

Under DNA-PK phosphorylation at serine 2056 (Homo sapiens (Human), UniProt P78527), report IC50 for OC(c1cc(-c2ncnc3cc(N4CCOCC4)ccc23)ccc1Cl)c1nccn2cccc12 (stereo not drawn)
0.5 to 5 µM

Report the value of IC50 obtained on DNA-PK phosphorylation at serine 2056 (Homo sapiens (Human), UniProt P78527) for COc1ccc(C(C(N)=O)c2cc(-c3ncnc4cc(N5CCOCC5)ccc34)c(F)cc2F)nn1 (stereo not drawn) .
10 to 30 µM

Identify measured IC50 obtained with DNA-PK phosphorylation at serine 2056 (Homo sapiens (Human), UniProt P78527) for OC(c1cc(-c2ncnc3cc(N4CCOCC4)ccc23)c(F)cc1F)c1cccc2nncn12 (stereo not drawn) .
5 to 10 µM

Under DNA-PK phosphorylation at serine 2056 (Homo sapiens (Human), UniProt P78527), report IC50 for OC(c1ccc(F)c(-c2ncnc3cc(N4CCOCC4)ccc23)c1)c1ncnc2occc12 (stereo not drawn)
< 0.5 µM

---

target: DNA-PK phosphorylation at serine 2056 (Homo sapiens (Human)); assay: DNA-PK phosphorylation at serine 2056 (cellular), bleomycin-treated HCT116 cells, ELISA; assay type: cell-based; conditions: cellular DNA-PK phosphorylation at serine 2056, HCT116; read-out: IC50 pDNA-PK
pIC50: −log10 of the molar value.
property: pIC50

Known results for compounds:
# compound, measured value
rows = [
    ("OC(c1cc(-c2ncnc3cc(N4CCOCC4)ccc23)ccc1Cl)c1ncncc1F (stereo not drawn) [Example 412]", "5.00 to 5.30"),
    ("NC(=O)C(c1cccnn1)c1cc(-c2ncnc3cc(N4CCOCC4)ccc23)c(F)cc1Cl (stereo not drawn)", "4.52 to 5.00"),
]

Give the measured pIC50 for OC(c1ccc(F)c(-c2ncnc3cc(N4CCOCC4)ccc23)c1)c1nccn2cccc12 (stereo not drawn)
> 6.30

Provide one value: measured pIC50 of NC(=O)C(c1cc(-c2ncnc3cc(N4CCOCC4)ccc23)c(F)cc1Cl)c1ncnn2cccc12 (stereo not drawn)
4.52 to 5.00

Given the compound Cc1nccnc1C(O)c1cc(-c2ncnc3cc(N4CCOCC4)ccc23)c(F)cc1Cl (stereo not drawn) , write its reported pIC50.
> 6.30

Please report the measured pIC50 for COc1nccnc1C(O)c1cc(-c2ncnc3cc(N4CCOCC4)cnc23)c(F)cc1Cl (stereo not drawn) [Example 247]
5.00 to 5.30

# return recorded pIC50 for input Cc1nccnc1C(C(N)=O)c1ccc(F)c(-c2ncnc3cc(N4CCOCC4)sc23)c1 (stereo not drawn)
5.00 to 5.30

Fill in pIC50 for record COc1nccnc1C(O)c1cc(-c2ncnc3cc(N4CCOCC4)cc(F)c23)c(F)cc1Cl (stereo not drawn) [Example 266]
> 6.30

Kindly indicate its recorded pIC50. Item: COc1ccc(C(O)c2cc(-c3ncnc4cc(N5CCOCC5)cc(F)c34)c(F)cc2Cl)nn1 (stereo not drawn) [Example 278]
> 6.30

---

Examples of compounds with documented IC50 follow.
molecular target: DNA-PK (Homo sapiens (Human), UniProt P78527); assay: DNA-PK assay (biochemical), flashplate 33P-ATP kinase assay; conditions: enzymatic; 5 μM ATP

Below are worked cases with known answers.
# compound, IC50
records = [
    ("CC(C#N)Oc1ccc(C(O)c2cc(-c3ncnc4cc(N5CCOCC5)ccc34)c(F)cc2Cl)nn1 (single isomer, unassigned) [Example 102]", "< 3 nM"),
    ("COc1cc(C)c(C(O)c2cc(-c3ncnc4cc(N5CCOCC5)ccc34)c(F)cc2Cl)nn1 (stereo not drawn) [Example 109]", "> 30 nM"),
]

Let's switch to this compound now.
Provide measured IC50 value, entry: OC(c1ccc(F)c(-c2ncnc3cc(N4CCOCC4)ccc23)c1)c1nccs1 (stereo not drawn) [Example 213]
< 3 nM
